Tested on: RPMI-8226 leukemia
Assay: NCI tumour cell line growth inhibition, 48 h
Property Name: TGI

Take a look at these entries with their results.
Compound	System Under Test	Result
O=[N+]([O-])c1ccc(N/N=C/c2c(O)ccc3ccccc23)nc1	RPMI-8226 leukemia	> 100 µM
COc1cc(OC)c2c(O)c3c(cc2c1)CC(C)(C)CC3=O	RPMI-8226 leukemia	> 100 µM
CC(C)[C@@H]1CC[C@@H](C)C[C@H]1OC(=O)/C=C1/C2C=CC(O2)C1C(=O)O[C@@H]1C[C@H](C)CC[C@H]1C(C)C (stereo not given in full)	RPMI-8226 leukemia	> 100 µM
CC(=O)OCCOCNC(=S)N/N=C(\C)c1cnc2ccccc2n1	RPMI-8226 leukemia	> 100 µM
Cc1nc2ccc(Nc3nc(NCCN4CCOCC4)nc(Nc4ccc(F)cc4)n3)cc2n1Cc1ccccc1	RPMI-8226 leukemia	4.62 µM

QUERY: Reported TGI for COC(=O)c1sc(C(=O)OC)c2c1CSC2 : what is it?
RESULT: > 100 µM

QUERY: Reported TGI for C=CCOCn1cnc2c(N)ncnc21 : what is it?
RESULT: > 100 µM

QUERY: Reported TGI for COc1cc2cc(C(=O)N3C[C@@H](CCl)c4c3cc(N)c3ccccc43)[nH]c2c(OC)c1OC : what is it?
RESULT: > 100 µM

QUERY: Reported TGI for O=C(Nc1nc2ccccc2n1Cc1ccccc1)NC12CC3CC(CC(C3)C1)C2 : what is it?
RESULT: > 100 µM

QUERY: Reported TGI for COC1=C(N=[N+]=[N-])C(=O)c2ncccc2C1=O : what is it?
RESULT: 4.89 µM
